Values compiled from patent US20250163104A1.

TARGET_OR_TEST_SYSTEM: human PD-1 / PD-L1-Ig binding on Jurkat cell line over-expressing human PD-1 (Jurkat-PD-1) (Homo sapiens, UniProt Q15116)
Construct: expressed in transfected cells; host or cells: Jurkat
Sequence (Q15116 25-288): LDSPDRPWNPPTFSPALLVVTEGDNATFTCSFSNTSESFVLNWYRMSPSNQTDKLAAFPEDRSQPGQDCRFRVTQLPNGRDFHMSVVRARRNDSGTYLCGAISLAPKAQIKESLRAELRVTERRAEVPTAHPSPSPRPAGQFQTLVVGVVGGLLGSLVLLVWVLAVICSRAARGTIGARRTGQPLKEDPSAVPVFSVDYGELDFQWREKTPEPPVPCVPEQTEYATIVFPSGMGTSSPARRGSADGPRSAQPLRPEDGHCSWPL
PROTOCOL_NOTES: Jurkat-PD-1 Cell Binding High-Content Screening Assay (CBA)
Type: cell-based
TEST_SETTINGS: Jurkat-PD-1 cells, PE-labeled PD-L1-Ig 20 nM final; read-out: Jurkat HPD1_PDL1 IC50
Where a SMILES comes first, the peptide text is derived from it. Bridges are numbered along the chain shown (N, C = ends). [ ]: non-standard residue; d: D form. Bip = N[C@@H](Cc1ccc(-c2ccccc2)cc1)C(=O)O; 4Pal = N[C@@H](Cc1ccncc1)C(=O)O; Dap = NC[C@H](N)C(=O)O

COMPOUND	U	IC50
CC(C)C[C@@H]1NC(=O)[C@H](CC(N)=O)NC(=O)[C@@H](CC(C)C)NC(=O)[C@H](CN)NC(=O)[C@H](C(C)C)NC(=O)[C@H](Cc2ccc(-c3ccccc3)cc2)NC(=O)[C@H](C(C)C)NC(=O)[C@H](Cc2c[nH]c3ccccc23)NC(=O)[C@H](CC(=O)O)NC(=O)[C@H](Cc2ccncc2)NC(=O)[C@H](CN)NC(=O)CSC[C@@H](C(=O)NCC(N)=O)NC(=O)[C@H](CO)NC(=O)[C@H](C(C)C)NC1=O [Compound 1293] ({CH2CO}-[Dap][4Pal]DWV[Bip]V[Dap][dL]NLVSCG-NH2; thioether N-14)	nM	10.6
